All figures here come from patent US20070254831A1.

Measured On: T1, soluble human FcRn (human, UniProt P55899 24-297; P61769 21-119, biotinylated (Sulfo-NHS-LC-Biotin) in the ELISA; amine-coupled to CM5 chip in SPR)
T1 construct: also called shFcRn; biotinylated shFcRn
Test Method Notes: ELISA, competitor human IgG
Square brackets hold non-standard residues; d marks the D form. Ends that are not written are not given here.
Measure Name: IC50 (µM)
// note: answer is a bare numeric in µM

QRFVTGHFG[dP]LYPINGP-NH2 (N-terminus assumed; SMILES CC[C@H](C)[C@H](NC(=O)[C@@H]1CCCN1C(=O)[C@H](Cc1ccc(O)cc1)NC(=O)[C@H](CC(C)C)NC(=O)[C@H]1CCCN1C(=O)CNC(=O)[C@H](Cc1ccccc1)NC(=O)[C@H](Cc1c[nH]cn1)NC(=O)CNC(=O)[C@@H](NC(=O)[C@@H](NC(=O)[C@H](Cc1ccccc1)NC(=O)[C@H](CCCNC(=N)N)NC(=O)[C@@H](N)CCC(N)=O)C(C)C)[C@@H](C)O)C(=O)N[C@@H](CC(N)=O)C(=O)NCC(=O)N1CCC[C@H]1C(N)=O) [Peptide No. 169]    72

In: Look up IC50 of QRFVTGHFG[dP]WYPANGP-NH2 (N-terminus assumed; SMILES CC(C)[C@H](NC(=O)[C@H](Cc1ccccc1)NC(=O)[C@H](CCCNC(=N)N)NC(=O)[C@@H](N)CCC(N)=O)C(=O)N[C@H](C(=O)NCC(=O)N[C@@H](Cc1c[nH]cn1)C(=O)N[C@@H](Cc1ccccc1)C(=O)NCC(=O)N1CCC[C@@H]1C(=O)N[C@@H](Cc1c[nH]c2ccccc12)C(=O)N[C@@H](Cc1ccc(O)cc1)C(=O)N1CCC[C@H]1C(=O)N[C@@H](C)C(=O)N[C@@H](CC(N)=O)C(=O)NCC(=O)N1CCC[C@H]1C(N)=O)[C@@H](C)O) [Peptide No. 177] and report it.
Out: 52
